The entries below are paired with their reported IC50.
- experimental_system: class C beta-lactamase P99 (AmpC) (Enterobacter cloacae, UniProt P05364)
- Sequence (P05364 21-381): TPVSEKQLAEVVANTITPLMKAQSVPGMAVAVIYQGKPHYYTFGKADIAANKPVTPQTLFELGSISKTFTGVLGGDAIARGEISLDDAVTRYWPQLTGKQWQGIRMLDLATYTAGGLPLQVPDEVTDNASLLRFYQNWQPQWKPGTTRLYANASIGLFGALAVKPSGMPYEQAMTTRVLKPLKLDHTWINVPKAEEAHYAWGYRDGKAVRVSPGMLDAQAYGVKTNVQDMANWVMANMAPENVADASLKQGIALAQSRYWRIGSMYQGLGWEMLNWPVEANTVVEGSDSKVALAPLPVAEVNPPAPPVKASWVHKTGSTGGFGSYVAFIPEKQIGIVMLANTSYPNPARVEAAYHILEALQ
- experiment_description: biochemical
- Assay type: biochemical
Could you give me the number in nM? Just the number is fine.

| compound | IC50 [nM] |
| --- | --- |
| CO[C@H]1CCC[C@H]2C1=C(C(=O)O)N1C(=O)[C@H]([C@H](O)C(F)(F)F)[C@@H]21 [LK-178] | 419 |

With those in mind, consider the next compound.
Given the compound CO[C@H]1CCC[C@H]2C1=C(C(=O)[O-])N1C(=O)[C@H]([C@H](O)CF)[C@@H]21.[Na+] [LK-180] , what is its reported IC50? 0.5
